# tested-system: nitrogenase (Azotobacter vinelandii, UniProt P00459)
# Construct: the nitrogenase sample was prepared from a culture of Azotobacter vinelandii; endogenous in cells; host or cells: Azotobacter vinelandii culture; French press lysate, 10,000 x g supernatant (crude)
# Sequence (P00459 2-290 limits assumed): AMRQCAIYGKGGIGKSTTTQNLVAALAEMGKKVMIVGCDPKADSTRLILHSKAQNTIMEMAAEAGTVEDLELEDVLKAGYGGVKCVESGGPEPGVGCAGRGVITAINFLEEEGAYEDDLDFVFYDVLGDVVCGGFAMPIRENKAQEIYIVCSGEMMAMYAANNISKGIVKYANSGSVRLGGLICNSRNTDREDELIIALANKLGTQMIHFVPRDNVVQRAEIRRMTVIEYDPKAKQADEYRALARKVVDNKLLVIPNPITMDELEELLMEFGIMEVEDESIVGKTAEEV
# protocol-text: Chloroplast-coupled evolution of hydrogen by nitrogenase in the absence of substrate
# Assay type: biochemical
# experimental-parameters: Table II; hydrogen evolution
Structures can show the parent of a compound that is named as a salt.
quantity-name: ACTIVITY RELATIVE TO FERREDOXIN (%)

1. C[n+]1ccnc(CCS(=O)(=O)[O-])c1 | 154%
2. CCCC(c1c[n+](C)ccn1)S(=O)(=O)[O-] (centres unmarked) | 143%
3. Cc1c[n+](C)ccn1 | 14%
4. C[n+]1ccnc(C(=O)O)c1 | 0%
5. CCCCc1c[n+](C)ccn1 | 0%
6. C[n+]1ccnc(S(=O)(=O)[O-])c1 | 100%
7. C[n+]1ccnc(C(C)(C)[N+](=O)[O-])c1.[I-] | 32%
8. Cc1c[n+](C)cc(CS(=O)(=O)[O-])n1 | 124%
9. Cc1c[n+](CCCS(=O)(=O)[O-])ccn1 | 106%
10. C[n+]1ccnc(C(CC(O)CO)CC(O)CO)c1 (centres unmarked) | 62%

Hey, can you go through the list below and give me ACTIVITY RELATIVE TO FERREDOXIN (%) for every item?
1. C[n+]1ccnc(C(CCCS(=O)(=O)[O-])CCCS(=O)(=O)O)c1 (centres unmarked) [Compound 1800, sodium salt]
2. CC(=O)NCCc1c[n+](C)ccn1.[I-]
3. CC(c1c[n+](C)ccn1)S(=O)(=O)[O-] (centres unmarked)
4. Cc1c[n+](CCCS(=O)(=O)[O-])c(C)cn1

Response line:
1. 129%
2. 22%
3. 128%
4. 74%
